Answer each item with its documented inhibition.
biological target: Protein kinase C theta type (Homo sapiens) (UniProt Q04759); details: at 1 µM;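 note: each value is a mean inhibition of PKC-theta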
Sequence (Q04759 whole entry, looked up): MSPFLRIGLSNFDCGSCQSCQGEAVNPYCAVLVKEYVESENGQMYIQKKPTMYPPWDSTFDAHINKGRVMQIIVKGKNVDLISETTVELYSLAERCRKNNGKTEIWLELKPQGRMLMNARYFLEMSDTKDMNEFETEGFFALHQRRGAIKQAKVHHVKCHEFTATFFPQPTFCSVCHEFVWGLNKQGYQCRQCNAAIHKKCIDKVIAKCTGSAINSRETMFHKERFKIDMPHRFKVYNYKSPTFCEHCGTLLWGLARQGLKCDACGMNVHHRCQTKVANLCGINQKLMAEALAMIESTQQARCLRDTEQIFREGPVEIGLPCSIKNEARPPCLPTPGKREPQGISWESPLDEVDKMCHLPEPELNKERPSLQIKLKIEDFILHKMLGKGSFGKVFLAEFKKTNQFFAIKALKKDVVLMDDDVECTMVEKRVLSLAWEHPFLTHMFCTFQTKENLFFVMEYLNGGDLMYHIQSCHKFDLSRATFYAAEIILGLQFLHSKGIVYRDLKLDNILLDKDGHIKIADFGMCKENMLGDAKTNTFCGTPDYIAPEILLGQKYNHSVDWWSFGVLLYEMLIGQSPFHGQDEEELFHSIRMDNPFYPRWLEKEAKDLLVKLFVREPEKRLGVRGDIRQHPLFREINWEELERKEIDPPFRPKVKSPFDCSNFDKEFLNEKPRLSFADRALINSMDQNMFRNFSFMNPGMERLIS
The response must be a number in % with no trailing unit.

## Task // returns reported inhibition for input O=C(O[C@H]1CN[C@H](C#Cc2cc3ncnc(Nc4ccc5c(ccn5Cc5cc(F)ccc5F)c4)c3s2)C1)N1CCOCC1
## Result 0.91

## Task Any idea what its inhibition is? The molecule is COC(=O)Nc1nc2cc(Oc3ccc(NC(=O)Nc4ccccc4)cc3)ccc2[nH]1
## Result 2.87

## Task Entry Cc1ccc(-c2cc3c(NC(=O)C4CC4)ncnc3o2)cc1 has what inhibition?
## Result 1.79

## Task Reported inhibition, molecule COc1ccc(Nc2ncc(-c3ccccc3)o2)cc1OC : ____
## Result -0.93

## Task So what does the record say about inhibition for O=C(O[C@H]1CN[C@H](C#Cc2cc3ncnc(Nc4ccc5c(cnn5Cc5ccccc5)c4)c3s2)C1)N1CCOCC1 ?
## Result -1.1

## Task Item CC1=C(C(=O)Nc2ccc3[nH]ncc3c2)C(c2ccc(F)cc2)N=C(c2ccc(C(F)(F)F)nc2)N1 (centres undefined) has what recorded inhibition?
## Result 1.01

## Task Looking for the measured inhibition of COc1cccc(-n2ncc3c(N/N=C/c4ccc(C(=O)NCCN(C)C)cc4)ncnc32)c1 , can you help?
## Result 1.46

## Task // returns reported inhibition for input COc1cccc(Nc2nccc(-c3cnn4ncccc34)n2)c1
## Result 4.75

## Task What value of inhibition has been recorded for this entry: COc1ccc2ncn(-c3cc(O[C@H](C)c4ccccc4C(F)(F)F)c(C(N)=O)s3)c2c1
## Result -0.58

====

target: cAMP-dependent protein kinase catalytic subunit alpha (Homo sapiens); conditions: at 0.1 µM;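 note: reported value is the mean percent inhibition of PKA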
Exercise: state measured inhibition for each of the molecules provided.
Enter your answer as a number in %; do not include the unit.

## Task Query (molecule): NS(=O)(=O)c1ccc(N/N=C2\C(=O)Nc3cccc(CCc4ccncc4)c32)cc1 ; field requested: inhibition
## Result 1.41

## Task I have this molecule here, COc1cc(Nc2ncc(-c3ccccc3)o2)cc(OC)c1 , and I need its recorded inhibition.
## Result 1.51

## Task Can you share its inhibition? I mean this molecule: CS(=O)(=O)CCNCc1ccc(-c2ccc3ncnc(Nc4ccc(OCc5cccc(C(F)(F)F)c5)cc4)c3c2)o1
## Result 1.97

## Task Give its inhibition value. Item: COc1ccccc1-c1cc(/C=C2\C(=O)Nc3ncc(Br)cc32)cc(Br)c1O
## Result 1.83

## Task # inhibition lookup, item O=C(O[C@H]1CN[C@H](C#Cc2cc3ncnc(Nc4ccc5c(ccn5Cc5cc(F)ccc5F)c4)c3s2)C1)N1CCOCC1
## Result 1.86

## Task Can you share its inhibition? I mean this molecule: COc1ccc(-c2nn3ncccc3c2-c2ccnc(Nc3ccc(F)c(F)c3)n2)cc1
## Result 1.99

## Task Recorded inhibition for N#Cc1ccc2c(-c3ccnc(NC4CC4)n3)c(-c3ccc(F)cc3)nn2c1 , please?
## Result 1.59

## Task Which inhibition reading was recorded for the molecule COc1cc(N2CCN(C(C)C)CC2)ccc1Nc1nc(Nc2cccc3ncccc23)c2cc[nH]c2n1 ?
## Result 0.01

## Task Returns the measured inhibition for the input molecule. Input: COC(=O)Nc1nc2cc(Oc3ccc(NC(=O)Nc4ccccc4)cc3)ccc2[nH]1
## Result 2.49

The values you see were collected from ChEMBL document CHEMBL1961873.
